System: OVCAR-8
Test Details: NCI tumour cell line growth inhibition, 48 h
The source made the active and inactive calls. Cut-off read from the data, not from the text of the source: active = GI50 up to about 1.1 µM and inactive = higher.
Reported GI50 is given for each of the following compounds.

Please review the following examples before continuing.
Nc1c(C(=O)Nc2ccc(C3=NCCN3)cc2)cccc1C(=O)Nc1ccc(C2=NCCN2)cc1    65.3 µM (inactive)
Cc1c2[nH]c3ccc(Br)cc3c2c(C)c2nccc(O)c12    20.7 µM (inactive)
O=C(Nc1ccc([N+](=O)[O-])cc1[N+](=O)[O-])C(=O)C(C(=O)c1ccc2ccccc2c1)C1OC(=O)c2ccccc21 (centres undefined)    10 µM (inactive)
Cc1cc(NC[C@H](O)[C@H](O)[C@H](O)CO)c(Sc2cc(=O)[nH]c(=O)[nH]2)cc1C    > 62.5 µM (inactive)
CN1CCN(Cn2nc(COc3ccccc3Cl)n(/N=C/c3ccc(-c4ccc(Cl)cc4Cl)o3)c2=S)CC1    27 µM (inactive)
CCOc1cc(NC(C)=O)ccc1C(=O)NN1C(=O)/C(=C/c2ccc(Cl)cc2)N=C1c1ccccc1    34 µM (inactive)
Cc1cc(S(=O)(=O)Nc2nc(N)nc(N(C)C)n2)c(S)cc1Cl    > 10 µM (inactive)
N#CC(/C(=N\NC(=O)c1ccncc1)C(=O)Nc1ccc([N+](=O)[O-])cc1[N+](=O)[O-])c1nc(-c2ccc(Br)cc2)cs1 (centres undefined)    > 100 µM (inactive)

Please turn your attention to the following entry.
What reported GI50 corresponds to CSc1[nH]nc(N)c1C(=O)Nc1ccc(Cl)cc1 on OVCAR-8?
40.9 µM (inactive)

###

Test system: A498
Test Details: NCI tumour cell line growth inhibition, 48 h
Active and inactive are the calls of the source. Cut-off read from the data, not from the text of the source: active = GI50 up to about 1.1 µM and inactive = higher.
Select the correct class. Options are active, inactive and nothing else.

Use the examples below as a reference point.
CC(=O)c1c(N=[N+]=[N-])c2cccc3c2n(c1=O)CCC3    inactive
CSc1[nH]nc(N)c1C(=O)Nc1ccc(Cl)cc1    inactive
COc1cc(Nc2nnc3n2S(=O)(=O)c2cc(C)c(Cl)cc2S3)cc(OC)c1    inactive
COC(=O)C1C/C(=C/N(C)C)C(=S)N1 (stereo unspecified)    inactive
COC1=CC(O)(CC(N)=O)c2ccccc2C1=O (stereo unspecified)    inactive

Answer briefly: the call reported for CC1=NN(c2nc(N)nc(-c3sccc3N)n2)C(C)(C)C1 in this assay.
inactive

Another: Cc1cc(CN(Cc2ccccc2)Cc2nc3ccccc3[nH]2)c(O)c(CN(Cc2nc3ccccc3[nH]2)Cc2nc3ccccc3[nH]2)c1
inactive

Another: COc1c(Br)cc(/C=C(\C#N)c2ccccn2)cc1Br
active

Another: CCCCCCC(=O)C/C(CCC(=O)N(Cc1ccccc1)Cc1ccccc1)=N\NC(N)=O
inactive

Another: COC(=O)c1nc(-c2ccc(Cl)c(Cl)c2)nc2ccc(Cl)cc12
inactive

Another: CC1N(C)C(=O)OC12CCN(CCCC(=O)c1ccc(F)cc1)CC2 (stereo unspecified)
inactive

###

System: TK-10
Test Details: NCI tumour cell line growth inhibition, 48 h
Activity calls are given as the source filed them. Rule as the data show it: active = GI50 up to about 1.1 µM and inactive = higher.
Endpoint Name: GI50

CC(NC(=O)c1c(O)[nH]c(=S)[nH]c1=O)c1ccc([N+](=O)[O-])cc1 (centres undefined)    > 100 µM (inactive)
O=c1nc2n3c4c(cccc4nc-2c(=O)[nH]1)CCC3    > 100 µM (inactive)
Cc1nn(C(=O)Cc2ccccc2)c2c1C(c1ccc(N(C)C)cc1)SC(=N)N2 (centres undefined)    76.6 µM (inactive)

Please turn your attention to the following entry.
Entry Nc1nc(SCC(=O)c2ccc(Br)cc2)c2nc[nH]c2n1 : reported GI50 = ?
20.8 µM (inactive)
